B1: HDV Ribozyme (parent)
chain: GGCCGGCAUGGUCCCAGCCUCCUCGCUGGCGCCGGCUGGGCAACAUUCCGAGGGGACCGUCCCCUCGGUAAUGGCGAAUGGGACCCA

Variants of: B1
Assay: self-cleavage, relative activity (ratio to wild type); higher = more cleavage; co-transcriptional
Can you tell me self-cleavage for the items I'm about to list?

Assign self-cleavage to the following record: G17C A83G
0.131

Assign self-cleavage to the following record: U47C G50A
0.749

Assign self-cleavage to the following record: A16U C84A
0.665

Assign self-cleavage to the following record: C19U A45C
0.0767

Assign self-cleavage to the following record: C4A C64G
0.386

Assign self-cleavage to the following record: A42C C75G
0.0852

Assign self-cleavage to the following record: U9A U27A
0.9

Assign self-cleavage to the following record: U23G U65G
0.674

Assign self-cleavage to the following record: U23A G52A
1.02

Assign self-cleavage to the following record: U69G C75A
0.107

Assign self-cleavage to the following record: G11U C32U
0.215

Assign self-cleavage to the following record: A8C C26G
1.11

Assign self-cleavage to the following record: C15U C58G
1.36

Assign self-cleavage to the following record: C21G U37A
0.119

Assign self-cleavage to the following record: A45G G80U
0.151

Assign self-cleavage to the following record: C15U C32G
0.0489

Assign self-cleavage to the following record: C4G G52A
0.47

Assign self-cleavage to the following record: C24A A56U
0.872

Assign self-cleavage to the following record: C4G G17U
0

Assign self-cleavage to the following record: C18G U47A
0

Assign self-cleavage to the following record: A56G C61U
1.08

Assign self-cleavage to the following record: G1C U69C
0.158

Assign self-cleavage to the following record: C21G C36U
0.0326

Assign self-cleavage to the following record: G2U A42G
0.0767

Assign self-cleavage to the following record: C3U G82U
0.332

Assign self-cleavage to the following record: G1A A8U
0

Assign self-cleavage to the following record: U65A G81C
0.502

Assign self-cleavage to the following record: G50C U65C
1.05

Assign self-cleavage to the following record: U46G C58A
0.639

Assign self-cleavage to the following record: G55A G68C
0.777

Assign self-cleavage to the following record: A71C A77U
0.322

Assign self-cleavage to the following record: C24G U60A
0.264

Assign self-cleavage to the following record: G39C C41U
0.554

Assign self-cleavage to the following record: A45U G76U
0.652

Assign self-cleavage to the following record: U23A A87C
1

Assign self-cleavage to the following record: C49G C64U
0.973

Assign self-cleavage to the following record: C24A C85A
0.591

Assign self-cleavage to the following record: C58G A87C
0.919

Assign self-cleavage to the following record: C61G G67U
0.649

Assign self-cleavage to the following record: G52U U65C
0.658

Assign self-cleavage to the following record: U9C G35C
0.519

Assign self-cleavage to the following record: C30A G68C
0.308

Assign self-cleavage to the following record: G67C G74U
0.332

Assign self-cleavage to the following record: G39U C75G
0.0978

Assign self-cleavage to the following record: G34C C58A
0.161

Assign self-cleavage to the following record: C30A C49A
0.405

Assign self-cleavage to the following record: G6A U72C
0.219

Assign self-cleavage to the following record: G5C G38U
0

Assign self-cleavage to the following record: G17A G29U
0.0767

Assign self-cleavage to the following record: C36G C48G
0

Assign self-cleavage to the following record: C33G G54C
0.143

Assign self-cleavage to the following record: C3A C64G
0.32

Assign self-cleavage to the following record: C3G G74A
0.114

Assign self-cleavage to the following record: C32U U60A
0.782

Assign self-cleavage to the following record: A83U C84G
0.332

Assign self-cleavage to the following record: G11U U47G
0.246

Assign self-cleavage to the following record: G40U A77C
0.145

Assign self-cleavage to the following record: C41U G52U
0.868

Assign self-cleavage to the following record: U9C G50A
0.877

Assign self-cleavage to the following record: U47A G54A
0.95

Assign self-cleavage to the following record: G59A C85U
0.796

Assign self-cleavage to the following record: C22G U65A
0.0504

Assign self-cleavage to the following record: A56G G73U
0.249

Assign self-cleavage to the following record: G1A A87U
0.157

Assign self-cleavage to the following record: G6C C58U
0.394

Assign self-cleavage to the following record: A16G U65A
0.974

Assign self-cleavage to the following record: C21G A77U
0.0426

Assign self-cleavage to the following record: C21U C85U
0.511

Assign self-cleavage to the following record: C22A G81C
0.128

Assign self-cleavage to the following record: U23C C85G
0.869

Assign self-cleavage to the following record: C22A A42G
0

Assign self-cleavage to the following record: G80C C84G
0.163

Assign self-cleavage to the following record: A45G G76U
1.12

Assign self-cleavage to the following record: U46A U60C
0.752

Assign self-cleavage to the following record: G11A C75U
0.144

Assign self-cleavage to the following record: G17A C32U
0.369

Assign self-cleavage to the following record: G59U U69C
0.852

Assign self-cleavage to the following record: G52U A70U
0.831

Assign self-cleavage to the following record: G1A U72G
0.0665

Assign self-cleavage to the following record: A51U C62A
0.759
